System: RXF 393
protocol.description: NCI tumour cell line growth inhibition, 48 h
The source made the active and inactive calls. Rule as the data show it: active = GI50 up to about 1.1 µM and inactive = higher. Where a SMILES comes first, the peptide text is derived from it. [ ]: non-standard residue; d: D form. The star is where a group is joined. Phe(4-NO2) = N[CH](Cc1ccc([N+](=O)[O-])cc1)C(=O)O; Boc = CC(C)(C)OC(=O)*; OtBu = CC(C)(C)O*
Classes used: class 1 (active), class 0 (inactive)

compound="Cn1c(=O)c2c(nc3n2CC(C(=O)O)N3)n(C)c1=O (stereo not drawn)" class_assignment="class 0"
compound="CCN(CC)CCN1C=CC(C)C(C(=O)O)C1C(N)=O (stereo not drawn)" class_assignment="class 0"
compound=O=C(O)c1ccccc1/N=N/c1c(O)c(S(=O)(=O)O)cc2cc(S(=O)(=O)O)ccc12 class_assignment="class 0"
compound=O=c1c2ccccc2nc(N/N=C/c2ccc([N+](=O)[O-])cc2)n1-c1ccccc1 class_assignment="class 0"
compound=Cc1ccc(-c2cc(-c3ccccc3)c(C#N)c(=O)[nH]2)cc1 class_assignment="class 0"
compound=O=C(O)C/C=C/CC(=O)O class_assignment="class 0"
compound="C=CC(O)C#Cc1cnc(OC)nc1OC (stereo not drawn)" class_assignment="class 0"
compound="COC1(OC)CC2OC1C1N=NN(C(=O)OC(C)(C)C)C21 (stereo not drawn)" class_assignment="class 0"
compound=Cc1c/c(=N/NC(=O)c2ccncc2)n2nc(N)sc2n1 class_assignment="class 0"
compound=Cc1ccc(C(=O)Nc2ccc(CP(=O)(O)O)cc2CP(=O)(O)O)cc1NC(=O)Nc1cc(C(=O)Nc2ccc(CP(=O)(O)O)cc2CP(=O)(O)O)ccc1C class_assignment="class 0"
compound=Cc1cc2c3c(c1)CCCN3CCC2 class_assignment="class 0"
compound="Cc1ccc(/N=N/N(C)C(C)C(O)Cc2ccccc2)cc1 (stereo not drawn)" class_assignment="class 0"
compound="C=CCC1=CC2(OC)C(=O)C(OC)(OC)C1C1C(OC)(OC)C(=O)C(OC)=CC12CC=C (stereo not drawn)" class_assignment="class 0"
compound=O=[N+]([O-])c1ccc(S[C@@H]2[C@H]3c4c(-c5ccccc5)[nH]c(-c5ccccc5)c4[C@@H]2C[C@H]3Cl)cc1 class_assignment="class 1"
compound="COc1cccc2c1C(=O)c1c(O)c3c(c(O)c1C2=O)C[C@@](O)(C(=O)CO)C[C@@H]3OC1CC(N(C)C)C(O)C(C)O1 (stereo partly drawn)" class_assignment="class 1"
compound="NCC(O)CNC(=O)c1ccc(-c2ccc(-c3ccc(C(=O)NCC(O)CN)cc3)o2)cc1 (stereo not drawn)" class_assignment="class 0"
compound=COc1c(-c2nc3ccc(N4CCN(C)CC4)cc3[nH]2)cc(OC)c2[nH]c(COC(C)=O)nc12 class_assignment="class 0"
compound=Nc1nnc2oc3ccc4ccccc4c3cc1-2 class_assignment="class 0"
compound=COc1c(Cl)ccc(Cl)c1-c1nnc(-c2c(Cl)c(Cl)c(Cl)c(Cl)c2-c2nc3cc(C(=O)c4ccccc4)ccc3[nH]2)o1 class_assignment="class 0"
compound=CN(C)CCS/C(=N\c1ccccc1)N1CCCCC1 class_assignment="class 0"
compound="CCOC(=O)C1=C(C)N(NC(=O)Nc2ccccc2)C2(N)N(NC(=O)Nc3ccccc3)C(C)=C(C(=O)OCC)C12C(=O)OCC (stereo not drawn)" class_assignment="class 0"
compound=CCOC(=O)c1nc2ccc(C(F)(F)F)cc2nc1Nc1cc(OC)c(OC)c(OC)c1 class_assignment="class 0"
compound=Cc1ccc(S(=O)(=O)/N=C(\NN)Nc2ccc(Cl)cc2)cc1 class_assignment="class 0"
compound=CCOC(=O)/C(C#N)=C/c1ccc(CO)o1 class_assignment="class 0"
compound="[N-]=[N+]=NC1(Cc2ccccc2)C(=O)c2cccc3c2N(CCC3)C1=O (stereo not drawn)" class_assignment="class 0"
compound="CC(=O)O[C@@H]1[C@H](OC2CCCCC2(c2ccccc2)c2ccccc2)O[N+]([O-])=CC12CCCCC2 (stereo partly drawn)" class_assignment="class 0"
compound=CN(C)c1ncnc2c1Cc1ccccc1C(=O)N2C class_assignment="class 0"
compound=Cn1c2ccc(F)cc2c2ccc3c(c21)C(=O)C=CC3=O class_assignment="class 0"
compound=CC1(C)CC[C@]2(C)[C@@H](O)C[C@]3(C)C(=CC[C@@H]4[C@@]5(C)CC[C@H](O)C(C)(C)[C@@H]5CC[C@]43C)[C@@H]2C1 class_assignment="class 0"
compound=Cc1cc(C)c(-n2[nH]c(=O)n(C)c2=O)c(C)c1 class_assignment="class 0"
compound=Cc1ccc2c3c(cnc2n1)C(=O)OCCN3C class_assignment="class 0"
compound=Cc1ccc(/C=C/C(=O)c2ccc(Cl)c(Cl)c2)cc1 class_assignment="class 0"
compound="Cc1ccc(S(=O)(=O)OC(c2ccc(Cl)cc2Cl)C2OC(=O)c3ccccc32)cc1 (stereo not drawn)" class_assignment="class 0"
compound=CCCCCCCCCCCCCCCCc1c(O)nc(NN)nc1C(=O)OC class_assignment="class 0"
compound=O=C1NCN(c2ccccc2)C12CCN(CCCN1CCN(CCOC(c3ccccc3)c3ccccc3)CC1)CC2 class_assignment="class 0"
compound=Cc1ccc(/C=C/C(=O)C(C)C)cc1 class_assignment="class 0"
compound="CC(=O)NC(CCC(=O)OC(C)(C)C)C(=O)NC(CCC(=O)OC(C)(C)C)C(=O)NC(Cc1ccc([N+](=O)[O-])cc1)C(=O)NC(CCCCNC(=O)OC(C)(C)C)C(=O)NC(CCCCNC(=O)OC(C)(C)C)C(=O)NCC(=O)O (stereo not drawn) (Ac-E(OtBu)E(OtBu)[Phe(4-NO2)]K(Boc)K(Boc)G-OH; configuration not given here)" class_assignment="class 0"
compound=O=C1Nc2ccccc2/C1=C\c1c(Cl)n(-c2ccccc2)c2ccccc12 class_assignment="class 0"

* * *

System: T47D
protocol.description: NCI tumour cell line growth inhibition, 48 h
Active and inactive are the calls of the source. No stated cut-off is given here; in the data, active = GI50 up to about 1.1 µM and inactive = higher.
Listed here: items and their measured GI50.
readout.label: GI50

compound="CCOC(=O)C1=C(C)NC(=S)NC1c1cccc(O)c1 (stereo not drawn)" measured_on=T47D result_value="34.9 µM (inactive)"
compound=CC1(C)CN=C(Nc2ccc(F)c(Cl)c2)S1 measured_on=T47D result_value="> 100 µM (inactive)"
compound=CC(C)=CCC/C(C)=C/CC/C(C)=C/CC/C(C=O)=C/CC/C(C)=C\CC/C(C)=C/CC/C(C)=C/CC/C(C)=C/CC1=CC(=O)C=CC1=O measured_on=T47D result_value="10.5 µM (inactive)"
compound=CC1(C)CC[C@]2(C)[C@@H](O)C[C@]3(C)C(=CC[C@@H]4[C@@]5(C)CC[C@H](O)C(C)(C)[C@@H]5CC[C@]43C)[C@@H]2C1 measured_on=T47D result_value="9.79 µM (inactive)"
compound="CN(Cc1nc2c(N)nc(N)nc2nc1N)c1ccc(C(=O)NC(CCC(=O)O)C(=O)O)cc1 (stereo not drawn)" measured_on=T47D result_value="> 100 µM (inactive)"
compound="N#CC1=C(N)N(/N=C/c2ccco2)C(c2ccco2)C1(C#N)C#N (stereo not drawn)" measured_on=T47D result_value="12.4 µM (inactive)"
compound=C[C@H](CCC1=NCCN1)[C@H]1CC[C@H]2[C@@H]3CC[C@@H]4C[C@H](O)CC[C@]4(C)[C@H]3C[C@H](O)[C@]12C measured_on=T47D result_value="13.6 µM (inactive)"
compound=CNC1=Nc2ccccc2C(=S)N2CSC[C@@H]12 measured_on=T47D result_value="> 100 µM (inactive)"
compound="C=C1CC(Cn2ccc(=O)[nH]c2=O)(c2ccc(-c3ccccc3)cc2)OC1=O (stereo not drawn)" measured_on=T47D result_value="1.57 µM (inactive)"
compound="CC(=O)OCC(OC(C)=O)C(OC(C)=O)C(OC(C)=O)C(C=NN(C(C)=O)S(=O)(=O)c1ccc(/C=C2\\NC(=O)N(C)C2=O)cc1)OC(C)=O (stereo not drawn)" measured_on=T47D result_value="27.1 µM (inactive)"
compound=COC(C)(C)OCCN1CCN(CCN2C3=C(C=C(C(C)=O)C3)Sc3ccccc32)CC1 measured_on=T47D result_value="23.9 µM (inactive)"
compound="O=c1[nH]c(=O)n(C2CC(O)C(CO)O2)cc1/N=N/NCCc1ccccc1 (stereo not drawn)" measured_on=T47D result_value="> 100 µM (inactive)"
compound=Nc1nnc2oc3ccc4ccccc4c3cc1-2 measured_on=T47D result_value="11.4 µM (inactive)"
compound=O=C1Nc2ccccc2/C1=C\c1c(Cl)n(-c2ccccc2)c2ccccc12 measured_on=T47D result_value="3.41 µM (inactive)"
compound=CC(C)(C)C(=O)Oc1ccc(/C=C/C(=O)c2ccc(OC(=O)C(C)(C)C)cc2)cc1 measured_on=T47D result_value="91.2 µM (inactive)"
compound=CN(C)c1ccc(/C=C(\NC(=O)c2ccccc2)c2nc3ccccc3c(=O)o2)cc1 measured_on=T47D result_value="> 100 µM (inactive)"
compound=NCCSc1nc(-c2ccccc2)c(-c2ccccc2)o1 measured_on=T47D result_value="25.2 µM (inactive)"
compound="CC(=O)O[C@@H]1[C@H](OC2CCCCC2(c2ccccc2)c2ccccc2)O[N+]([O-])=CC12CCCCC2 (stereo partly drawn)" measured_on=T47D result_value="18.4 µM (inactive)"
